Recorded values, source ChEMBL document CHEMBL1149417.

Provide the reported IC50 of each item.
Note: unit nM is implicit; provide only the numeric part.

Entry C#CC1(O)CCC2C3CC=C4C[C@@H](O)CC[C@]4(C=C)C3CC[C@@]21C (single isomer, unassigned) ; assay system Androgen receptor (Homo sapiens, UniProt P10275); IC50 recorded at 287

Case CC/C=C\[C@]12CC[C@H](O)CC1=CCC1C2CC[C@@]2(C)C1CC[C@@H]2O (stereo partly drawn) , Androgen receptor (Homo sapiens, UniProt P10275), IC50 recorded as 3770

CC[C@]12CC[C@H](O)CC1=CCC1C2CC[C@@]2(C)C1CC[C@@H]2O (stereo partly drawn) on Androgen receptor (Homo sapiens, UniProt P10275) gives IC50 = 33
